All figures here come from PubChem BioAssay.

# subjectOfTest: Fibroblast growth factor 2 (Homo sapiens) (UniProt P09038)
# Sequence (P09038 whole entry, looked up): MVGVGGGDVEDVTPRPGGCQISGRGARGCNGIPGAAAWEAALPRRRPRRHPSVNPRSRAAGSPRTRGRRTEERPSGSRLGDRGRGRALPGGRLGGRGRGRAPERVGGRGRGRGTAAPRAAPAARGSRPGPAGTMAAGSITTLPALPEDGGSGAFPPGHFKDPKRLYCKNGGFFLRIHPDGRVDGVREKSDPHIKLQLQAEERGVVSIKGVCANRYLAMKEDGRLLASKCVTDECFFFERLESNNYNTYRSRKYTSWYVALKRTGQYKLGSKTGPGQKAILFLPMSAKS
# protocolText: FGF2 binders on small-molecule microarrays, primary screen, biochemical, small-molecule microarray, 635/667 nm fluorescence (AID 1133)
# protocolConditions: small-molecule microarray binding, FGF2, fluorescence 635/667; higher = more signal
measurementType: composite z-score
Give your answer as a number; write no unit.

Please review the entries below; each comes with its answer.
COc1ccc([Si](C)(C)[C@@H]2[C@@H](CCn3cc([C@H](O)c4ccccc4)nn3)O[C@]3(C(=O)N(C)c4c(Br)cc(C)cc43)[C@H]2C)cc1 | 1.44
O=C(NC1CC1)[C@@H]1c2ccccc2C(=O)N(Cc2ccccc2C(F)(F)F)[C@H]1c1ccc(CO)cc1 | 0.86
Cc1ccc(N2C(=O)c3ccccc3[C@](C)(C(=O)NC3CC3)[C@@H]2c2ccc(CO)cc2)nc1 | 0.373
COc1ccc([Si](C)(C)[C@H]2[C@H](CC(=O)N(CCO)Cc3ccccc3)O[C@@]3(C(=O)N(Cc4cccc(N5C(=O)COc6ccccc65)c4)c4ccccc43)[C@@H]2C)cc1 | 1.52
O=C(NO)[C@]1(Cc2ccccc2)N=C(c2ccc(OCCCO)cc2)O[C@@H]1c1ccccc1 | -0.0928
C=C(C1=CCN(S(=O)(=O)c2ccc(C)cc2)C1)[C@@H](OC(C)=O)[C@@H]1CCCN1S(=O)(=O)c1ccccc1[N+](=O)[O-] | -0.343

Consider the record given below.
stdin: What value of measured composite z-score is listed for `NC(=O)NCC#Cc1ccc2c(c1)[C@]1(C(=O)N2)[C@H](c2ccc(OCCO)cc2)N2[C@H](c3ccccc3)[C@H](c3ccccc3)OC(=O)[C@H]2[C@@H]1C(=O)Nc1nc2ccccc2s1` ?
stdout: -0.292

----------
# protocolText: cytotoxicity in IOSE-T80 ovarian epithelial cells, dose response, selectivity assay for PAX8 inhibitor project, cell-based, cherry-pick (AID 687032);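 further: cells exposed to compound for 96 h before reading; 0% = neutral control wells and -100% = 2 µM mitoxantrone kill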
# protocolConditions: CellTiterGlo ATP luminescence, 96 h; series mostly up to 35 µM
Results with a measured potency or affinity are listed apart. Inconclusive results are not listed. Activity calls are given as the source filed them.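 The calls were made as follows: active = fitted half-maximal concentration for viability loss no higher than twice the top valid dose, in every repeat run; inconclusive = repeat runs disagree, flat partial loss, or poor curve fit; inactive = the rest.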
measurementType: outcome

C[C@@H]1CCCCO[C@@H](CN(C)Cc2ccncc2)[C@H](C)CN([C@@H](C)CO)C(=O)c2cc(NC(=O)Nc3ccc(C(F)(F)F)cc3)ccc2O1 | inactive
COc1cccc(-c2ccc(C3[C@@H]4CN(C(=O)C5CC5)C[C@H]3N4)cc2)c1 (some centres undefined) | inactive
CC1(C)CC(=O)C=C(C#CC2(O)CCCCC2)C1 | inactive
O=C(C[C@H]1C[C@@H]2c3cc(NC(=O)C4CCOCC4)ccc3O[C@@H]2[C@@H](CO)O1)NCc1ccc(Oc2ccccc2)cc1 | inactive

----------
# subjectOfTest: Concanavalin-A (Canavalia ensiformis) (UniProt P02866)
# Sequence (P02866 whole entry, looked up): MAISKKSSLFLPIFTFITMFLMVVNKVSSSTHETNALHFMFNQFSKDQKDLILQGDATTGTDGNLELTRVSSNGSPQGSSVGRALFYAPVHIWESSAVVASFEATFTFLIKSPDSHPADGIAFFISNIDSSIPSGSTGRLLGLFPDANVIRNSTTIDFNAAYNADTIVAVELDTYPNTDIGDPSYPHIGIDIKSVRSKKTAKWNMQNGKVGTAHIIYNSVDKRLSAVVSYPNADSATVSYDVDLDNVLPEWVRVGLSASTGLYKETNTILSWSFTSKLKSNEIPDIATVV
# protocolText: ConA small-molecule binders, primary screen, artefact control for SMM control protein annotation, biochemical, small-molecule microarray, Alexa647 label, 635 nm (AID 1127);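 further: z combines 667 nm emission intensity with signal-to-noise across three replicate slides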
# protocolConditions: ConA-A647 binding fluorescence, higher = more signal
measurementType: composite z-score
Give your answer as a number; write no unit.

COc1ccc([Si](C)(C)[C@H]2[C@H](CC(=O)N(CCO)Cc3ccccc3)O[C@@]3(C(=O)N(Cc4ccc(N5CCOC5=O)cc4)c4ccccc43)[C@@H]2C)cc1 | 1.06
COCCOC(=O)N1C(=O)[C@@]2(c3cc(C#CC4(O)CCCCCC4)ccc31)[C@H](c1ccc(O)cc1)N1[C@H](c3ccccc3)[C@H](c3ccccc3)OC(=O)[C@H]1[C@@H]2C(N)=O | 0.641
C=CCNC(=O)[C@H]1[C@@H]2C(=O)O[C@@H](c3ccccc3)[C@@H](c3ccccc3)N2[C@@H](c2ccc(OCCO)cc2)[C@]12C(=O)Nc1ccc(C#CCCO)cc12 | 0.783
COc1ccc([Si](C)(C)[C@@H]2[C@@H](CC(=O)N3CCC[C@H]3CO)O[C@]3(C(=O)N(Cc4ccc(I)cc4)c4ccccc43)[C@H]2C)cc1 | 1.19
CC(=O)OC(C/C=C\B1OC(C)(C)C(C)(C)O1)c1ccccc1 (centres undefined) | -0.923

stdin: What value of measured composite z-score is listed for `C=C(COC)/C(=C/C[C@H](OC(C)=O)c1cccc(OCCO)c1)c1cc(C(=O)OC)ccc1OC` ?
stdout: -0.0821

stdin: What value of measured composite z-score is listed for `CC(C)[Si](C#C[Si](C(C)C)(C(C)C)C(C)C)(O[C@H](C)c1cn([C@H](C)c2ccccc2)nn1)C(C)C` ?
stdout: 0.927

stdin: What value of measured composite z-score is listed for `CCOC(=O)C[C@H]1[C@H](OC(=O)c2cc3ccccc3oc2=O)[C@@H](NC(=O)c2ccccc2)c2cc(OCCCO)ccc2N1C(=O)Cc1ccc(OC)cc1` ?
stdout: 0.773

stdin: What value of measured composite z-score is listed for `COc1ccc([Si](C)(C)[C@H]2[C@H](CC(=O)N(CCO)Cc3ccccc3)O[C@@]3(C(=O)N(Cc4cccc(N5C(=O)COc6ccccc65)c4)c4ccccc43)[C@@H]2C)cc1` ?
stdout: 1.06

stdin: What value of measured composite z-score is listed for `COC(=O)C(CC#Cc1ccc2c(c1)[C@]1(C(=O)N2)[C@H](C(N)=O)[C@H]2C(=O)O[C@H](c3ccccc3)[C@H](c3ccccc3)N2[C@@H]1c1ccc(O)cc1)C(=O)OC` ?
stdout: -1.92

stdin: What value of measured composite z-score is listed for `C/C=C/[C@@H](CCn1cc(CCO[Si](C(C)C)(C(C)C)C(C)C)nn1)[Si](C)(C)c1ccc(OC)cc1` ?
stdout: -2.84

stdin: What value of measured composite z-score is listed for `O=C1N(CCS(=O)(=O)c2ccccc2)Cc2ccccc2[C@@H]2OC(c3ccc(OCCCO)cc3)=N[C@]12Cc1ccccc1` ?
stdout: 1.13

stdin: What value of measured composite z-score is listed for COC(=O)C1=CC(c2ccc(CO)cc2)=CC(c2cccs2)N(C)C=C1C(=O)OC (centres undefined) ?
stdout: 0.494

stdin: What value of measured composite z-score is listed for `O=C(O)[C@H]1C[C@H]2C(=O)N[C@@H](Cc3ccccc3)C(=O)N2[C@H]1c1ccc(O)cc1` ?
stdout: 0.956
